Entries annotated with measured GI50
- Test system: HOP-92
- assay.comment: NCI tumour cell line growth inhibition, 48 h
Active and inactive are the calls of the source. Rule as the data show it: active = GI50 up to about 1.1 µM and inactive = higher.

| compound | GI50 |
| --- | --- |
| N#CCCN(C(=O)Nc1ccccc1)[C@H]1CCCC[C@@H]1N(C(=O)Nc1ccccc1)c1ccccc1 | > 100 µM (inactive) |
| OC1(c2ccccc2)CCN(Cc2c[nH]c3ccccc23)CC1 | > 100 µM (inactive) |
| COC(=O)Cc1c([C@H]2[C@H](CC(=O)OC)c3ccccc3N2S(=O)(=O)c2ccc(C)cc2)[nH]c2ccccc12 | > 100 µM (inactive) |
| CCc1n[nH]c(=O)n1N1C(=O)C2CCCCC2C1=O (stereo not given) | > 100 µM (inactive) |
| O=C1N/C(=N/N=C/c2c[nH]c3ccccc23)N/C1=C\c1cccs1 | 49 µM (inactive) |
